Value source: ChEMBL document CHEMBL1137871

target: Prostaglandin D2 receptor (Mus musculus, UniProt P70263); experiment: Ability to inhibit the binding of [3H]PGD-2 radioligand to membranes of CHO cells stably expressing mouse Prostaglandin D2 receptor
Sequence (P70263 whole entry): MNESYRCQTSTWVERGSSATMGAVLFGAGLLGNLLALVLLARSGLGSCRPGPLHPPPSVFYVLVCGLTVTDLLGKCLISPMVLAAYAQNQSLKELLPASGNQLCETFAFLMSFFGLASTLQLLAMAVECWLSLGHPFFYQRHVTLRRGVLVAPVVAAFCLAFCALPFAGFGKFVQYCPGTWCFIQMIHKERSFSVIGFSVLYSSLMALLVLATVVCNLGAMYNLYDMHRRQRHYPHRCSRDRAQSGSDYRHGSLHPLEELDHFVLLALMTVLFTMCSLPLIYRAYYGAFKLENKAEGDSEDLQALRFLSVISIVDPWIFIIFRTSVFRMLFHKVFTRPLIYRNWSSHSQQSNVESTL
# Ki annotations
experimental readout: Ki

1) Cc1cc2c(CC(=O)O)cccc2n1C(=O)c1ccc(OC[C@H]2CN(C)c3ccccc3O2)cc1	230 nM
2) Cc1cc2c(CC(=O)O)cccc2n1C(=O)c1ccc(OCCOc2ccccc2)cc1	10 nM
3) Cc1cc2c(CC(=O)O)cccc2n1C(=O)c1ccc(OCC2Oc3ccccc3O2)cc1	9.4 nM
4) Cc1cc2c(CC(=O)O)cccc2n1C(=O)c1ccc(OCC2Cc3ccccc3O2)cc1 (stereo not drawn)	20 nM
5) Cc1cc2c(CC(=O)O)cccc2n1C(=O)c1ccc(OC[C@@H]2CN(C)c3ccccc3O2)cc1	10 nM
6) Cc1cc2c(CC(=O)O)cccc2n1C(=O)c1ccc(OC[C@H]2COc3ccccc3O2)cc1	120 nM
7) Cc1cc2c(CC(=O)O)cccc2n1C(=O)c1ccc(OCc2ccccc2)cc1	60 nM
8) Cc1cc2c(CC(=O)O)cccc2n1C(=O)c1ccc(OCC2COc3ccccc3C2)cc1 (stereo not drawn)	180 nM
9) Cc1cc2c(CC(=O)O)cccc2n1C(=O)c1ccc(OC[C@@H]2CN(C)c3ccc(F)cc3O2)cc1	23 nM
10) Cc1cc2c(CC(=O)O)cccc2n1C(=O)c1ccc(OCC2CCc3ccccc3O2)cc1 (stereo not drawn)	60 nM
11) Cc1cc2c(CC(=O)O)cccc2n1C(=O)c1ccc(OCCCc2ccccc2)cc1	170 nM
12) CCCCOc1ccc(C(=O)n2c(C)cc3c(CC(=O)O)cccc32)cc1	10 nM
13) Cc1cc2c(CC(=O)O)cccc2n1C(=O)c1ccc(OC[C@@H]2COc3ccccc3O2)cc1	10 nM

###

# Ki annotations
target: Prostaglandin E2 receptor EP2 subtype (Mus musculus, UniProt Q62053)
Sequence (Q62053 whole entry): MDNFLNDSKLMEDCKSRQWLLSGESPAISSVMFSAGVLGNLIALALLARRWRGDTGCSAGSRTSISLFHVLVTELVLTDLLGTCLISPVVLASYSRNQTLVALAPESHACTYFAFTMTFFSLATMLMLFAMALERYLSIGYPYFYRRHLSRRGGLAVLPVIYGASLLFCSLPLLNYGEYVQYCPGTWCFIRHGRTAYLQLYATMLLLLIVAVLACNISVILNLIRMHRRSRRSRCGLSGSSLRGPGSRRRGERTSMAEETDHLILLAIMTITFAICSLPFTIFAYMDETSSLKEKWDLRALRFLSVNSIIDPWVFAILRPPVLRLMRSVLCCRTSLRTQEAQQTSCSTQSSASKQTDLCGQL
experimental readout: Ki

1) Cc1cc2c(CC(=O)O)cccc2n1C(=O)c1ccc(OCC2CCc3ccccc3O2)cc1 (centres undefined)	90 nM
2) Cc1cc2c(CC(=O)O)cccc2n1C(=O)c1ccc(OCCc2ccccc2)cc1	1300 nM
3) Cc1cc2c(CC(=O)O)cccc2n1C(=O)c1ccc(OC[C@@H]2CN(C)c3ccc(F)cc3O2)cc1	2100 nM
4) Cc1cc2c(CC(=O)O)cccc2n1C(=O)c1ccc(OCC2Cc3ccccc3O2)cc1 (centres undefined)	450 nM

###

target: Prostaglandin D2 receptor (Homo sapiens); assay: Ability to inhibit the binding of [3H]PGD-2 radioligand to membranes of CHO cells stably expressing human Prostaglandin D2 receptor
Sequence (Q13258 whole entry): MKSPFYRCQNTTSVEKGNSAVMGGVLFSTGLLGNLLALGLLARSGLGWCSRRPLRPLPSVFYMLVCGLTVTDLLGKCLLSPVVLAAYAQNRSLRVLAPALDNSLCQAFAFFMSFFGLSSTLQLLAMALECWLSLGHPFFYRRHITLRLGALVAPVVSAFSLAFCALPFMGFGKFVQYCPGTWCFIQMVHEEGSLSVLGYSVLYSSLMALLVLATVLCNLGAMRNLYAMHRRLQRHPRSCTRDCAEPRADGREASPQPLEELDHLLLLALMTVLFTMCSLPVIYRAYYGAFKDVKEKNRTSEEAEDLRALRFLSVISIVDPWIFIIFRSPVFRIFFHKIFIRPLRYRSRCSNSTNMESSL
pKi: −log10 of the molar value.
experimental readout: pKi

1) Cc1cc2c(CC(=O)O)cccc2n1C(=O)c1ccc(OCC2Cc3ccccc3O2)cc1 (stereo not given)	7.70
2) Cc1cc2c(CC(=O)O)cccc2n1C(=O)c1ccc(OCC2CCc3ccccc3O2)cc1 (stereo not given)	7.30
3) Cc1cc2c(CC(=O)O)cccc2n1C(=O)c1ccc(OCCOc2ccccc2)cc1	6.54
4) Cc1cc2c(CC(=O)O)cccc2n1C(=O)c1ccc(OC[C@@H]2CN(C)c3ccc(F)cc3O2)cc1	8.28
5) Cc1cc2c(CC(=O)O)cccc2n1C(=O)c1ccc(OC[C@H]2COc3ccccc3O2)cc1	6.89
6) Cc1cc2c(CC(=O)O)cccc2n1C(=O)c1ccc(OC[C@H]2CN(C)c3ccccc3O2)cc1	6.77
7) Cc1cc2c(CC(=O)O)cccc2n1C(=O)c1ccc(OCC2COc3ccccc3C2)cc1 (stereo not given)	6.41
8) Cc1cc2c(CC(=O)O)cccc2n1C(=O)c1ccc(OCC2Oc3ccccc3O2)cc1	7.52
9) Cc1cc2c(CC(=O)O)cccc2n1C(=O)c1ccc(OC[C@@H]2CN(C)c3ccccc3O2)cc1	8.46
10) Cc1cc2c(CC(=O)O)cccc2n1C(=O)c1ccc(OC[C@@H]2COc3ccccc3O2)cc1	8.00
